biological target: UniProtKB Q9GZU1; test: Fluorescent TRPML1 assay (Fluo4-AM calcium fluorescence in doxycycline-induced HEK-293 Trex cells); type: cell-based
Sequence (Q9GZU1 whole entry L15A/L16A/L577A/L578A, form open): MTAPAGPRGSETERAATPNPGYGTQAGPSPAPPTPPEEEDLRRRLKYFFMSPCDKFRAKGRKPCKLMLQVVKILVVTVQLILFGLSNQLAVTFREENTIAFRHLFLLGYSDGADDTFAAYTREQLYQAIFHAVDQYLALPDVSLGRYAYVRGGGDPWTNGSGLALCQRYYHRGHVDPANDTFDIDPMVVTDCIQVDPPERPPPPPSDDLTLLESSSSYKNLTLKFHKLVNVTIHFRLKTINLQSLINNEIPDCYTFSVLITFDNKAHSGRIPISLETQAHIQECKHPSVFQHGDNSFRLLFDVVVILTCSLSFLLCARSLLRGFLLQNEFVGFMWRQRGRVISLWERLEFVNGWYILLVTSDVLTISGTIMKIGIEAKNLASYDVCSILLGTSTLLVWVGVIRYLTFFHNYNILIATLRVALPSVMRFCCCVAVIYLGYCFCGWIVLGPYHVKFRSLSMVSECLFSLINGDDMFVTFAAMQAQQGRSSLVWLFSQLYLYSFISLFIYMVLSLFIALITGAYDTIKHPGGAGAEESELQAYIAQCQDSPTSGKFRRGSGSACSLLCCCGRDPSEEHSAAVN
quantity.name: EC50

CC(C)c1cn(-c2cc(F)ccn2)c2ncnc(N3C[C@@H](C)N(C(=O)OC(C)(C)C)C[C@@H]3C)c12 ... < 100 nM
C[C@@H]1CN(c2ncnc3c2c(C2CCC2)cn3-c2cc(F)cc(F)c2)[C@@H](C)CN1C(=O)OC(C)(C)C ... 500 to 2000 nM

-- ask Dear colleague, I am looking for the recorded EC50 of the following molecule: `[2H]C([2H])([2H])C(OC(=O)N1C[C@H](C)N(c2ncnc3c2c(C(F)(F)F)cn3-c2cc(C#N)ccn2)C[C@H]1C)(C([2H])([2H])[2H])C([2H])([2H])[2H]`
-- reply < 100 nM

-- ask And what about the molecule `C[C@@H]1CN(c2ncnc3c2c(C(F)(F)F)cn3-c2cc(C#N)ccn2)[C@@H](C)CN1C(=O)OC1CCC1` ?
-- reply < 100 nM

-- ask And what about the molecule `C[C@@H]1CN(c2ncnc3c2c(C(F)F)cn3C2CCCCC2)[C@@H](C)CN1C(=O)OC(C)(C)C` ?
-- reply 100 to 500 nM
